system: 485368-065-R3-J5-PDC spheroids with HUVEC/MSC, viability; assay: Anticancer human tumor 485368-065-R3-J5-PDC patient-derived pancreatic carcinoma cell line growth inhibition [RAS]; conditions: second compound 0.00949 µM; first compound 3.16 µM; hits give low values;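 also: spheroids exposed to agents for seven days before readout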
assayMetric: viability, T/C

Cc1nc(N2CCC3(CC2)COC(C)C3N)c(CO)nc1Sc1ccnc(N)c1Cl (centres undefined) + CCn1c(-c2cc(N3CCN(C)CC3)cnc2C(C)OC)c2c3cc(ccc31)-c1csc(n1)CC(NC(=O)C1CC1C)C(=O)N1CCCC(N1)C(=O)OCC(C)(C)C2; 4.66%
Cc1nc(N2CCC3(CC2)COC(C)C3N)c(CO)nc1Sc1ccnc(N)c1Cl (centres undefined) + CCn1c(-c2cccnc2C(C)OC)c2c3cc(ccc31)N1CCOC(CC(NC(=O)C(C(C)C)N(C)C(=O)C3(F)CCN(C(=O)C#CC(C)(C)N(C)C)CC3)C(=O)N3CCCC(N3)C(=O)OCC(C)(C)C2)C1; 80.4%
C[C@@H](NC(=O)c1ncnc(N)c1Cl)c1ncc(C(=O)Nc2cc(C(F)(F)F)c(Cl)cn2)s1 + CCn1c(-c2cccnc2C(C)OC)c2c3cc(ccc31)N1CCOC(CC(NC(=O)C(C(C)C)N(C)C(=O)C3(F)CCN(C(=O)C#CC(C)(C)N(C)C)CC3)C(=O)N3CCCC(N3)C(=O)OCC(C)(C)C2)C1; 96.5%
NC1c2ccccc2OC12CCN(c1cnc3c(N4CCCc5ncccc54)n[nH]c3n1)CC2 (centres undefined) + CCn1c(-c2cc(N3CCN(C)CC3)cnc2C(C)OC)c2c3cc(ccc31)-c1csc(n1)CC(NC(=O)C1CC1C)C(=O)N1CCCC(N1)C(=O)OCC(C)(C)C2; 2.03%
